tested on: HeLa Kyoto; assay: thermal stability score vs G1/S (z-score of summed log2 fold changes over temperatures); higher = more thermally stable than in G1/S; settings: cell cycle stage: mitosis;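 note: synchronized HeLa Kyoto cells, proteins quantified by TMT10plex mass spectrometry, three biological replicates, mitosis taken 0.5 h after nocodazole release, G1/S directly after double thymidine block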
Readout name: thermal stability score
Answer as a number with no unit attached.

Illustrative cases are given below, each with its answer.
Seq string | System | thermal stability score
MADGKAGDEKPEKSQRAGAAGGPEEEAEKPVKTKTVSSSNGGESSSRSAEKRSAEEEAADLPTKPTKISKFGFAIGSQTTKKASAISIKLGSSKPKETVPTLAPKTLSVAAAFNEDEDSEPEEMPPEAKMRMKNIGRDTPTSAGPNSFNKGKHGFSDNQKLWERNIKSHLGNVHDQDN [PCNP] | HeLa Kyoto | -6.06
MMAAGAALALALWLLMPPVEVGGAGPPPIQDGEFTFLLPAGRKQCFYQSAPANASLETEYQVIGGAGLDVDFTLESPQGVLLVSESRKADGVHTVEPTEAGDYKLCFDNSFSTISEKLVFFELIFDSLQDDEEVEGWAEAVEPEEMLDVKMEDIKESIETMRTRLERSIQMLTLLRAFEARDRNLQEGNLERVNFWSAVNVAVLLLVAVLQVCTLKRFFQDKRPVPT [TMED1] | HeLa Kyoto | 2.9
MAITLEEAPWLGWLLVKALMRFAFMVVNNLVAIPSYICYVIILQPLRVLDSKRFWYIEGIMYKWLLGMVASWGWYAGYTVMEWGEDIKAVSKDEAVMLVNHQATGDVCTLMMCLQDKGLVVAQMMWLMDHIFKYTNFGIVSLVHGDFFIRQGRSYRDQQLLLLKKHLENNYRSRDRKWIVLFPEGGFLRKRRETSQAFAKKNNLPFLTNVTLPRSGATKIILNALVAQQKNGSPAGGDAKELDSKSKGLQWIIDTTIAYPKAEPIDIQTWILGYRKPTVTHVHYRIFPIKDVPLETDDLTTWLYQRFVEKEDLLSHFYETGAFPPSKGHKEAVSREMTLSNLWIFLIQSFAFLSGYMWYNIIQYFYHCLF [LPGAT1] | HeLa Kyoto | -0.757
MSGQRVDVKVVMLGKEYVGKTSLVERYVHDRFLVGPYQNTIGAAFVAKVMSVGDRTVTLGIWDTAGSERYEAMSRIYYRGAKAAIVCYDLTDSSSFERAKFWVKELRSLEEGCQIYLCGTKSDLLEEDRRRRRVDFHDVQDYADNIKAQLFETSSKTGQSVDELFQKVAEDYVSVAAFQVMTEDKGVDLGQKPNPYFYSCCHH [RAB24] | HeLa Kyoto | -0.316
MSALEWYAHKSLGDGIFWIQERFYESGNRANIWLVRGSEQDVVIDTGLGLRSLPEYLYSSGLLQDREAKEDAARRPLLAVATHVHFDHSGGLYQFDRVAVHHAEAEALARGDNFETVTWLSDSEVVRTPSPGWRARQFRVQAVQPTLILQDGDVINLGDRQLTVMHMPGHSRGSICLHDKDRKILFSGDVVYDGSLIDWLPYSRISDYVGTCERLIELVDRGLVEKVLPGHFNTFGAERLFRLASNYISKAGICHKVSTFAMRSLASLALRVTNSRTSP [MBLAC2] | HeLa Kyoto | -1.79

Attention now shifts to the item below.
Return reported thermal stability score; argument: MEGQRWLPLEANPEVTNQFLKQLGLHPNWQFVDVYGMDPELLSMVPRPVCAVLLLFPITEKYEVFRTEEEEKIKSQGQDVTSSVYFMKQTISNACGTIGLIHAIANNKDKMHFESGSTLKKFLEESVSMSPEERARYLENYDAIRVTHETSAHEGQTEAPSIDEKVDLHFIALVHVDGHLYELDGRKPFPINHGETSDETLLEDAIEVCKKFMERDPDELRFNAIALSAA [UCHL3]
-0.422
